Below, each entry is listed with its recorded IC50.
- Tested on: HT-29
- assay-text: cells
- setup-conditions: Homo sapiens, HT-29, 72 h
Provide only the numeric value, understood in nM.

# compound, IC50, nM
measured = [
    ("C[C@@H]1CC[C@H]2[C@@H](C)C(OCCN/C(=N/c3ccc(Cl)cc3Cl)NCCOC3O[C@@H]4O[C@]5(C)CC[C@@H]6[C@@H](C)CC[C@H]([C@@H]3C)[C@]46OO5)O[C@H]3O[C@@]4(C)CC[C@@H]1[C@]32OO4 (stereo partly drawn)", 50),
]

INPUT: # lookup: HT-29 IC50, key = C[C@@H]1CC[C@H]2[C@@H](C)C(OCCN/C(=N/c3cc(C(F)(F)F)ccc3F)NCCOC3O[C@@H]4O[C@]5(C)CC[C@@H]6[C@@H](C)CC[C@H]([C@@H]3C)[C@]46OO5)O[C@H]3O[C@@]4(C)CC[C@@H]1[C@]32OO4 (stereo partly drawn)
OUTPUT: 20

INPUT: # lookup: HT-29 IC50, key = C[C@H]1[C@@H](CCNC(=O)CC[C@H]2O[C@H]3O[C@@]4(C)CC[C@H]5[C@H](C)CC[C@@H]([C@H]2C)[C@@]35OO4)O[C@H]2O[C@@]3(C)CC[C@H]4[C@H](C)CC[C@@H]1[C@@]24OO3
OUTPUT: 1100
